Source: the supplement of paper PMC7726561

# ASSAY TARGET: HLA-C*04:01
# EXPERIMENT DESCRIPTION: thermal melting temperature (Tm) of peptide-HLA complex; higher = more thermostable pHLA complex
# MEASUREMENT CONTEXT: C1R-B*07:02
RECORDED ENDPOINT: thermal melting temperature (°C)
Value expressed in °C; do not type the unit.

Guide cases for thermal melting temperature, answers given:
LYDLVTEKM 60.7
LYDEAIRHF 60
VFDVLDGEEM 60.9

Now take the following sequence into account.
Item under review: VFDTAIAHL . Reported thermal melting temperature?
58.7
